target_or_test_system: T1, Recombinant mouse DDR2 ECD-Fc (R&D systems, Cat. No. 7479-DR-050) (mouse, UniProt Q62371 22-399, biotinylated)
T1 construct: Bought protein; not shown: Fc part of the bought fusion protein, not described
T1 sequence: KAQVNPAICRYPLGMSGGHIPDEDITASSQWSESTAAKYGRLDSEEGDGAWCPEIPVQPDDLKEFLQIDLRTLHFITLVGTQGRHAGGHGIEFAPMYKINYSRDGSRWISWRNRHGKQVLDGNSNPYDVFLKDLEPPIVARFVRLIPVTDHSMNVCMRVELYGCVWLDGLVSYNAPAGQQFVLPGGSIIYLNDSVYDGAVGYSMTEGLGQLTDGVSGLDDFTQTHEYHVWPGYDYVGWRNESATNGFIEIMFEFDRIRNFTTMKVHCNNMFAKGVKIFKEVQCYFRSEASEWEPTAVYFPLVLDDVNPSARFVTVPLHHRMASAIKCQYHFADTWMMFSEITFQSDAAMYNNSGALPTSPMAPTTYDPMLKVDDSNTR
protocol_description: Octet tandem binning on captured mouse DDR2 ECD-Fc; competitor Ab1 (bound first) DAB0065
Procedure: Competitive epitope binning experiment was performed by real-time binding assay using Octet (Pall ForteBio). Recombinant mouse DDR2 ECD-Fc (R&D systems, Cat. No. 7479-DR-050) was biotinylated and captured onto streptavidin biosensor tips (Pall ForteBio) as antigen. The antigen captured tips were dipped into 15 or 40 microgram (micro g)/mL of a first set of antibodies for 300 seconds. […] Result was analyzed by DATA Analysis HT software (Pall ForteBio, Version 10.0.1.7). […]
Measured Octet response of Ab2 of individual entries
Format: numeric value only, no unit, no commentary.

Example entries begin here.
# binder, Octet response of Ab2
records = [
    ("DAB0060 (antibody, V domains shown, Variable regions from immunized rabbits) VH: QSVEESGGRLVTPGTALTLTCTASGFSLSSYDMSWVRQAPGEGLEWIGTIFTEGSTSCASWVKGRFTISRTSTTVDLKITSPTTEDTATYFCVRGTTSNRLWGQGTLVTVSS VL: DVVMTQTPASVEAVVGATVTIRCQASESITNYLSWYQQKPGQPPKVLIYYASTLESGVPSRFKGSGSGTQFTLTISDLECADAATYYCQSNYFSSSYSYGNTFGGGTKVEIK", 0.766),
    ("DAB0045 (antibody, V domains shown, Variable regions from immunized rabbits) VH: QSVEESGGRLVTPGTPLTLTCTVSGFSLSSYSMGWVRQAPGKGLEYIGVINTSDSAYYASWAKGRFTISRTSTTVDLKMTSLTTEDTATYFCARAIGYYGSGWGACYFNLWGQGTLVTVSS VL: AIKMTQTPSSVSAAVGGTVTVNCQASEDIKSYLAWYQQKPGQPPKLLIYSASTLASGVSSRFKGSGSGTQFTLTISDLECADAATYYCQSYYGTSTTGEYNAFGGGTKVEIK", -0.0102),
    ("DAB0069 (antibody, V domains shown, Variable regions from immunized rabbits) VH: QSLEESGGRLVTPGTPLTLTCTASGFSLSNYYMQWVRQAPGKGLEWIGIVYPGSSAYYANWAKGRFTISKTSTTVDLKMTSLTTEDTATYFCAGSSNSVYSFNLWGQGTLVTVSS VL: AYDMTQTPSSVSAAVGGTVTIKCQASESIYRSLAWYQQKPGQPPKLLIYSASTLTSGVSSRFKGSGSGTEFTLTISDLECADAGTYYCQQGGSFSNIVNTFGGGTKVEIK", -0.0058),
]

Now look at this entry.
Exercise: Param item = DAB0048 (antibody, V domains shown, Variable regions from immunized rabbits) VH: QSVEESGGRLITPGTPLTLTCTASGFSLSIYYMIWVRQAPGKGLEWIGYIWSGSTTDYASWAKGRFTISKTSTTVDLKITSPTTEDTATYFCARVYAGYGYGSDLWGQGTLVTVSS VL: AAVLTQTPSPVSAAVGGTVSISCQSSQSVYNNNWLAWYQQKPGQPPKLLIYSASTLASGVPSRFKGSGSGTQFTLTISDVQCDDAATYYCAGGYSTNSDKNAFGGGTKVEIK ; retrieve measured Octet response of Ab2.
Key: 1.49

Where do these numbers come from? They come from patent US20240270853A1.
